Test system: SF-268 CNS
Experiment: NCI-60 one-dose screen, 48 h
Details: 10 µM unless noted
The panel holds about 83,000 compounds, 20% with a hit somewhere; the sample as a whole holds those more often. Calls of active or inactive are those of the source. The calls were made as follows: active = growth percent below 10; inactive = the rest.
Outcome codes: active, inactive

{"compound": "COc1ccc2oc(=O)cc(CN3C(=O)S/C(=C\\c4ccc(Cl)cc4)C3=O)c2c1", "assigned_label": "inactive"}
{"compound": "COc1ccc(/C=C/C(=O)/C=C/c2cc3ccccc3[nH]c2=O)cc1", "assigned_label": "inactive"}
{"compound": "CCC(C)(C)c1ccc(OCCCCCCN2CCNCC2)cc1", "assigned_label": "inactive"}
{"compound": "O=c1[nH]c2cc(O)ccc2n2cc3c(F)cccc3c12", "assigned_label": "inactive"}
{"compound": "O=C(O)COc1ccc([N+](=O)[O-])cc1Cl", "assigned_label": "inactive"}
{"compound": "O=C(Nc1ccc(Cl)cn1)C1(c2ccccc2)CCCCC1", "assigned_label": "inactive"}
{"compound": "Cc1cc2c(-c3nc4ccccc4n3C)c(O)c(O)cc2c(O)c1-c1c(C)cc2c(-c3nc4ccccc4n3C)c(O)c(O)cc2c1O", "assigned_label": "inactive"}
{"compound": "CCOC(=O)C1=C(C(F)(F)F)NC(=S)NC1CN1C(=O)c2ccccc2C1=O (stereo not given)", "assigned_label": "inactive"}
{"compound": "CCCCCCCCCc1cc[n+](CC(=O)c2ccc([N+](=O)[O-])cc2)cc1", "assigned_label": "inactive"}
{"compound": "CCOC(=O)C1=C(C(F)(F)F)NC(=O)NC1CN1C(=O)c2ccccc2C1=O (stereo not given)", "assigned_label": "inactive"}
{"compound": "COc1cc(-c2nn(-c3ccc(NC(=O)Nc4ccc(Cl)c(C(F)(F)F)c4)cc3)cc2-c2ccncc2)ccc1Cl", "assigned_label": "inactive"}
{"compound": "COc1ccc(C(O)(c2ccccc2)C(C(=O)O)c2ccccc2)cc1 (stereo not given)", "assigned_label": "inactive"}
{"compound": "COc1cc(/C(=C2/O[C@@H]([C@H]3COC(C)(C)O3)[C@H]3OC(C)(C)O[C@@H]23)c2ccc3c(c2)OCO3)cc(OC)c1OC", "assigned_label": "inactive"}
{"compound": "COC(=O)[C@H](Cc1cn(C)cn1)NC(=O)[C@@H](NC(=O)Nc1cc(C(F)(F)F)cc(C(F)(F)F)c1)C(C)(C)C", "assigned_label": "active"}
{"compound": "O=C1/C(=C\\c2cn(-c3nc(N4CCOCC4)nc(N4CCOCC4)n3)c3ccccc23)c2ccccc2N1c1c(Cl)cccc1Cl", "assigned_label": "inactive"}
{"compound": "Cc1nc2ccccc2c(=O)n1-c1cccc(OCc2cn(-c3cccc(O)c3)nn2)c1", "assigned_label": "inactive"}
{"compound": "CC(C)OC(=O)Nn1cnc2ccccc21", "assigned_label": "inactive"}
{"compound": "CCOC1=C(Cl)C(=O)C(OCC)=C(Cl)C1=O", "assigned_label": "inactive"}
{"compound": "CCOc1ccc(/C=N/NC(=O)c2cccc3ccccc23)cc1OCC", "assigned_label": "inactive"}
{"compound": "O=[N+]([O-])c1ccc(-c2ncc(-c3ccc(O)cc3O)[nH]2)cc1", "assigned_label": "inactive"}

----------
Test system: EKVX NSCLC
Experiment: NCI-60 one-dose screen, 48 h (100 = growth as untreated, 0 = no growth, -100 = all killed)
Settings: 10 µM
This is part of a sample that, as a whole, favours compounds with a hit. Of some 83,000 tested, about 20% had one in any assay.
Readings of growth for the listed compounds
experimental_endpoint: growth (%)

{"compound": "CCC(C)C1NC(=O)C(CCCCN)NC(=O)C(CCCCN)NC(=O)C(CC(C)C)NC(=O)C(CCCCN)NC(=O)C(C(C)CC)NC(=O)C(C(C)C)NC(=O)C(C(C)CC)NC(=O)C(CCCCN)NC(=O)C(CCCCN)NC(=O)C(C)NC(=O)C(CCCCN)NC(=O)C(CC(C)C)NC1=O (configuration not stated)", "test_system": "EKVX NSCLC", "unit_name": "%", "quantitative_readout": 13.5}
{"compound": "COc1cc2c(/C=C3\\C(=O)Nc4ccc(Br)cc43)c(Cl)n(C)c2cc1C", "test_system": "EKVX NSCLC", "unit_name": "%", "quantitative_readout": 42.1}
{"compound": "CCCCCc1ccnc(CC(=O)c2ccc(OC)cc2)c1", "test_system": "EKVX NSCLC", "unit_name": "%", "quantitative_readout": 92.5}
{"compound": "O=C(/C=C1\\C(=O)N(Cc2ccccc2)c2ccccc21)c1ccc(OCCN2CCCCC2)cc1", "test_system": "EKVX NSCLC", "unit_name": "%", "quantitative_readout": 64.2}
{"compound": "NCCCOc1cc2ccccc2cc1C(=O)Nc1ccc(Cl)cc1OC(=O)c1cc2ccccc2cc1OCCCN", "test_system": "EKVX NSCLC", "unit_name": "%", "quantitative_readout": -53.7}
{"compound": "C#CCCCCCCC[C@@H]1OC(=O)[C@H]([C@@H](C)CC)NC(=O)[C@@H]([C@@H](C)CC)NC(=O)CC(=O)[C@@H]1C", "test_system": "EKVX NSCLC", "unit_name": "%", "quantitative_readout": 93.4}
{"compound": "COC(=O)c1ccc(C(=Nc2ccc(N(C)C(=O)CN3CCN(C)CC3)cc2)c2c(O)[nH]c3ccc(C(=O)OC)cc23)cc1", "test_system": "EKVX NSCLC", "unit_name": "%", "quantitative_readout": 64.3}
